The compounds below have reported pKd for IRAK4 (Homo sapiens, UniProt Q9NWZ3).
Note: pKd values are expressed as the negative base-10 logarithm of concentration in M.

# input compound: CC1(c2ccc3ncc(-c4cccc(N[C@@H]5CCNC5)n4)n3c2)CC1 [Compound 15] ; wanted: its pKd
9.70

Continuing:
May I ask what pKd has been recorded for COc1ccc2ncc(-c3cccc(N[C@@H]4CCCNC4)n3)n2c1 [Compound 14] ?
8.30

====

Test system: NF-kB activity upon IL-1β stimulation (IL-1R) in THP1 NF-kB reporter cells
protocolSummary: THP1 NF-kB reporter assay, IL-1β stimulation
Assay type: cell-based, human
studyConditions: Homo sapiens, THP-1; Table 1; unit nM; read-out: THP-1 NFkB IL1B IC50
Entries and their measured IC50 follow.
Note: unit nM is implicit; provide only the numeric part.

Record lookup: for NF-kB activity upon IL-1β stimulation (IL-1R) in THP1 NF-kB reporter cells, what IC50 belongs to `CC[C@@H]1[C@H](F)C(=O)N[C@@H]1COc1nccc2cc(C(N)=O)c(OC)cc12` ?
678

The record that follows has no IC50 shown yet.
Give NF-kB activity upon IL-1β stimulation (IL-1R) in THP1 NF-kB reporter cells IC50 for `COc1cc2ncc(-c3nc(N[C@@H]4CCCNC4)c(F)cc3F)n2nc1C1CC1`
58.7

Data origin, for the record: patent US20260034112A1
